Assay: CRE method F: cyclic sulfite/sulfamidite formation with SOCl2 + DMAP
Settings: the molecule shown is the open-chain precursor; 10-membered ring; CH2Cl2; 50.0 mM; 22.0 °C; 18.0 h
Each entry below carries its reported ring closure, isolated yield.
Number in %, nothing else.

Below, 3 compounds whose answers are already recorded.
O=S(Cl)OCCCCCCCO (stereo not shown) [30 -> 31 (control)]	8
O=S(Cl)OCCCN(CCCO)Cc1ccccc1 (stereo not shown) [28 -> 29]	86
O=S(Cl)OCCCN(CCCO)c1ccccc1 (stereo not shown) [S130 -> 89]	40

Would you kindly look at the next entry?
Reported ring closure, isolated yield for CN(c1ccccc1-c1cccc(CCO)n1)S(=O)Cl (stereo not shown) [S124 -> 86] was 46
